pKd: −log10 of the molar value.
Observed pKd values for STAT3 (Homo sapiens, UniProt P40763) are listed in what follows.
READOUT: pKd

Take a look at these entries with their results.
{"columns": ["COMPOUND", "pKd"],
 "data": [
  ["CCS(=O)(=O)Cc1cnc(Oc2c(F)cc(F)cc2OCc2nc(COc3ccc(/C=C/c4cc(OC)cc(OC)c4)cc3)c[nH]2)c(-c2cc(C)c3c(=O)[nH]ccn23)c1 [BST-1]", 7.78],
  ["CCS(=O)(=O)Cc1cnc(Oc2c(F)cc(F)cc2O/C=C\\CC(=O)COc2ccc(/C=C/c3cc(OC)cc(OC)c3)cc2)c(-c2cc(C)c3c(=O)[nH]ccn23)c1 [BST-2]", 7.54]
]}

A. CCS(=O)(=O)Cc1cnc(Oc2c(F)cc(F)cc2OC[C@@H]2CCC[C@H](COc3ccc(/C=C/c4cc(OC)cc(OC)c4)cc3)N2)c(-c2cc(C)c3c(=O)[nH]ccn23)c1 [BST-3]
B. CCS(=O)(=O)Cc1cnc(Oc2c(F)cc(F)cc2OCCCCOc2ccc(/C=C/c3cc(OC)cc(OC)c3)cc2)c(-c2cc(C)c3c(=O)[nH]ccn23)c1 [BST-4]
C. CCS(=O)(=O)Cc1cnc(Oc2c(F)cc(F)cc2OCC2CCC(COc3ccc(C=Cc4cc(OC)cc(OC)c4)cc3)N2)c(-c2cc(C)c3c(=O)[nH]ccn23)c1 (centres unmarked) [BST-5]
Task for the reader: rank each entry by its pKd, from the minimum upward. # output: labels, in the requested order
C, A, B

* * *

Target: STAT6 (Homo sapiens, UniProt P42226)
Sequence (P42226 1-847): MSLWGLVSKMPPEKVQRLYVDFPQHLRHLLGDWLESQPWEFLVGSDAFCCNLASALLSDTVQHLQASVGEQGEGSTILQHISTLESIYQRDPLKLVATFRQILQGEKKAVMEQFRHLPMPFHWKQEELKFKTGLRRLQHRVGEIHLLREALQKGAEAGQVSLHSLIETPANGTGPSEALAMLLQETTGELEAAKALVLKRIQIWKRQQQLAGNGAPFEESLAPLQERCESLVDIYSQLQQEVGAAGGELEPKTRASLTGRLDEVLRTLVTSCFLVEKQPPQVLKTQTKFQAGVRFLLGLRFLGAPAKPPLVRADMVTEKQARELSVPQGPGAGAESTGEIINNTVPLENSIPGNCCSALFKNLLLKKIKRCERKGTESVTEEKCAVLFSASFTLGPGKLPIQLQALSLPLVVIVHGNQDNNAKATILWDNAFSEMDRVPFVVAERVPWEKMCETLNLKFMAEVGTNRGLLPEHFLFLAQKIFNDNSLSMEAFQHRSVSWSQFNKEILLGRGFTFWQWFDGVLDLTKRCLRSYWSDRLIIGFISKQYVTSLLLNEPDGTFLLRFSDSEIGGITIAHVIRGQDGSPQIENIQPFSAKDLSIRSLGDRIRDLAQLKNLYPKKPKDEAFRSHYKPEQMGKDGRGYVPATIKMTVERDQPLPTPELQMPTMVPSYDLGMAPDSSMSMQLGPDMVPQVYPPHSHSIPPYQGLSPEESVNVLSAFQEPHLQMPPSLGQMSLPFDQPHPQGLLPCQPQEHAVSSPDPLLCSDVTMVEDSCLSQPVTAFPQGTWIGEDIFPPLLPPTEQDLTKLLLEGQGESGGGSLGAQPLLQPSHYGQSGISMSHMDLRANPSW
pKd: −log10 of the molar value.
READOUT: pKd

Lab book: pKd of CCS(=O)(=O)Cc1cnc(Oc2c(F)cc(F)cc2OCCCCOc2ccc(/C=C/c3cc(OC)cc(OC)c3)cc2)c(-c2cc(C)c3c(=O)[nH]ccn23)c1 [BST-4] noted as < 5.00

Source listed as paper PMC11897524.
